Assay: Cell culture cytotoxicity assay (EZ4U colorimetric test)
Type: cell-based
Conditions: human, HeLa cells
PARAMETER: CC50 at 3 days (µM)

1) O=C(OC[C@H]1O[C@@H](n2cnc3c(Cl)nc(F)nc32)[C@H](OC(=O)c2ccccc2)[C@@H]1OC(=O)c1ccccc1)c1ccccc1 [compound 6c] : 35
2) O=C(OC[C@H]1O[C@@H](n2cnc3c(Cl)ncnc32)[C@H](OC(=O)c2ccccc2)[C@@H]1OC(=O)c1ccccc1)c1ccccc1 [compound 6b] : 56
3) OC[C@H]1O[C@@H](n2cnc3c(NCc4c5ccccc5cc5ccccc45)ncnc32)[C@H](O)[C@@H]1O [5c] : 58
4) OC[C@H]1O[C@@H](n2cnc3c(NC(c4ccccc4)(c4ccccc4)c4ccccc4)ncnc32)[C@H](O)[C@@H]1O [compound 5b] : 59.6
5) OC[C@H]1O[C@@H](n2cnc3c(NCc4cc5ccc6cccc7ccc(c4)c5c67)ncnc32)[C@H](O)[C@@H]1O [5d] : 56
6) O=C(OC[C@H]1O[C@@H](n2cnc3c(O)ncnc32)[C@H](OC(=O)c2ccccc2)[C@@H]1OC(=O)c1ccccc1)c1ccccc1 [6a, 2′,3′,5′-Tri-O-benzoylinosine] : 58
7) O=C(OC[C@H]1O[C@@H](n2cnc3c(Cl)nc(Cl)nc32)[C@H](OC(=O)c2ccccc2)[C@@H]1OC(=O)c1ccccc1)c1ccccc1 [compound 6d] : 33
